Biological target: T1, human formyl peptide receptor 2 (FPR2) (human, UniProt P25090 1-351)
T1 construct: formyl peptide receptor 2, human, overexpressed in HEK293 cells; also called FPR2-HEK293; source: HEK293, transiently overexpressed
T1 sequence (looked up): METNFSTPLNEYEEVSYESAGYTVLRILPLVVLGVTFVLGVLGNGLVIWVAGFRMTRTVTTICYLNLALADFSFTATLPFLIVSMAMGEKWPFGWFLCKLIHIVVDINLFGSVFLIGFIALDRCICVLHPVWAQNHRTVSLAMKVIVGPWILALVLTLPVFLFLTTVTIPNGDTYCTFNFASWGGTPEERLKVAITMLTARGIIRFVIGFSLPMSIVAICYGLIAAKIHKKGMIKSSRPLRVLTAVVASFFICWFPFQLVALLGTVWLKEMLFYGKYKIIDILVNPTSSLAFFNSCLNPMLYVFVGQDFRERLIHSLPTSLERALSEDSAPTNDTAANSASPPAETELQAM
Assay: other fluorescence titration; saturation binding assay; BODIPY FL iodoacetamide-labelled SCIMP^N with membrane component (debris) of HEK293 cells overexpressing FPRs, black/clear bottom 96-well plate, quenching of the label on binding, excited at 370 nm, detected at 512 nm, measured for 4 min
Details: one partner purified
Where no end group is shown, it is not given here.
readout_type: Kd (nM)
Answers are plain numbers, in nM.

Specify measured Kd for MDTFTVQDSTAMSWWRNN (also: labeled with BODIPY FL iodoacetamide, site not given here, the 18 amino acids before the transmembrane domain at the N-terminus (extramembrane fragment); also called SCIMP N-terminal peptides; source: synthetic peptide (Chinese-Peptide-Company.Inc), purity more than 95%) [human SCIMP N-terminus peptide (SCIMP^N, 18aa)] . 3.5
